Tested on: MCF7 breast
Experiment: NCI tumour cell line growth inhibition, 48 h
measurement-label: TGI

Guide cases for TGI, answers given:
compound	system-name	observed-result
CN(C)c1nc(=NCc2ccco2)ss1	MCF7 breast	33.1 µM
O=c1cc(-c2ccc(O)cc2)oc2cc(O[C@@H]3O[C@H](CO)[C@@H](O)[C@H](O)[C@H]3O)cc(O)c12	MCF7 breast	> 100 µM
O=C(/C=C/c1ccc(O)c(O)c1)NCc1c[nH]c2ccccc12	MCF7 breast	> 100 µM

Request: // TGI lookup, key: `CC(=O)NC1=C(NCCCl)C(=O)c2ccccc2C1=O`
Response: > 100 µM

###

System: NCI-H460 lung
Assay: NCI tumour cell line growth inhibition, 48 h
Below, each entry is listed with its recorded TGI.

molecule	system-name	TGI
O=C(O)/C=C\C(=O)Nc1ccccn1	NCI-H460 lung	> 100 µM

Request: Entry `O=Nn1c2ccccc2c2cc([N+](=O)[O-])ccc21` : reported TGI = ?
Response: 54.2 µM

Request: Field entry: `C=C1[C@@](C)([C@@H]2CCCS2)[C@H]2C(C)=C[C@]1(C)n1c(=O)n(-c3ccccc3)c(=O)n12`
Response: > 100 µM

Request: Now consider `Cc1ccc(Sc2ccccc2[N+](=O)[O-])cc1` and answer again.
Response: > 100 µM

###

TGI: recorded values
Tested on: M14 melanoma
Experiment: NCI tumour cell line growth inhibition, 48 h
Please respond with the number in µM and leave the unit unwritten.

These recorded examples may help you get a feel for the data.
compound	measurement-label	unit-name	observed-result
N#C/C(=C\c1ccc([N+](=O)[O-])s1)c1nc2cc(Cl)ccc2s1	TGI	µM	1.68
Cc1ncc(C(=O)Nc2ccc(CN3CCN(C)CC3)c(C(F)(F)F)c2)cc1C#Cc1ccc(N)nc1	TGI	µM	0.797
Oc1ccccc1C1C=C(c2ccccc2)NC(N2CCCCC2)=C1c1nc2ccccc2[nH]1 (stereo not given)	TGI	µM	25.9
CC(=O)NC1=C(NCCCl)C(=O)c2ccccc2C1=O	TGI	µM	27.7
C=C1C(=O)O[C@H]2[C@H]1CC/C(COC(=O)NCc1ccc(OC)cc1)=C\CC[C@@]1(C)O[C@@H]21	TGI	µM	1.14

Request: Give the measured TGI of `COc1ccc2nc3c(c(NCCCN(C)C)c2c1)CCCC3` .
Response: 26.1

###

Tested on: NCI/ADR-RES ovarian
Test: NCI tumour cell line growth inhibition, 48 h
measurement-label: TGI

molecule	TGI
COC(=O)c1c(C)cccc1C1CN=NC12Cc1ccc(C)c(C)c1C2=O (stereo unspecified)	> 100 µM
COc1ccc(Nc2nc3ccccc3c3occc23)cc1	18.7 µM
CC(C)=CCOc1cc(NC(=S)c2ccsc2C)ccc1Cl	> 100 µM
Cn1c(=O)c2[nH]c(SCCN3CCOCC3)nc2n(C)c1=S	> 100 µM
CN(C)c1ccc(/C=C/C(=O)N[C@@H]2C(=O)N3[C@@H]2SC(C)(C)[C@@H]3C(=O)O)cc1	> 100 µM
CCC(C)Oc1nc2c(c(=O)n(C)c(=O)n2C)n1C (stereo unspecified)	> 100 µM

Request: Consider the molecule `COc1ccccc1N=Nc1c(O)c(S(=O)(=O)O)cc2cc(S(=O)(=O)O)ccc12` and give its measured TGI.
Response: > 100 µM

Request: Now the same for `CCN(Cc1cc(F)ccc1F)c1ccc(CO)c(Cl)c1`
Response: 39.9 µM

Request: Then this molecule: O=CC(O)C(O)C(O)C1CNC(=S)O1 (stereo unspecified)
Response: > 100 µM

Request: Okay, and `N=C(N)SCCC(=O)CCSC(=N)N` ?
Response: > 100 µM

Request: # iterate: `CO[C@H]1O[C@@H]2CO[C@@H](c3ccccc3)O[C@H]2[C@@H]2C/C=C\CCC[C@@]12O`
Response: 88.3 µM
